TARGET_ENTITY: T1, FLAG-tagged mouse latent TGF-beta 1 (mouse, UniProt P04202 34-390)
T1 construct: Co-expressed with human furin; also called mouse latent TGF-beta 1 (SLC); mSLC
EXPERIMENT_NOTES: SPR (BIACORE), antibody captured on anti-human Fc, antigen as analyte, pH 7.4
pKd: −log10 of the molar value.
MEASUREMENT_NAME: pKd

- BINDER: "hT0947AE25-SG181 (antibody, human IgG1, kappa, V domains shown, Human IgG1; Heavy chain = VH + CH, light chain = VL + CL) VH: QVQLVESGGGVVQPGRSLRLSCAASGFHFSNEAMNWIRQPPGKGLEWIGYIYTSGTTYRSNWARGRFTISRDNSKNTLYLQMNSLRAEDTAVYYCARGWHIFGHQYWVMHFWGQGTLVTVSS VL: DIQMTQSPSSLSASVGDRVTITCQASQSISTYEAWYQQKPGQPPKLLIYAASTLESGVPSRFSGSGSGTDFTLTISSLQPEDFATYYCQSYSDGDSVGFGQGTKVEIKR"
  VALUE_OBSERVED: 8.35
- BINDER: "hT0947AE23-SG181 (antibody, human IgG1, kappa, V domains shown, Human IgG1; Heavy chain = VH + CH, light chain = VL + CL) VH: QVQLVESGGGVVQPGRSLRLSCAASGFHFSREAMNWIRQPPGKGLEWIGYIYTSGTTYRANWARGRFTISRDNSKNTLYLQMNSLRAEDTAVYYCARGTHLFGHHYWVMHSWGQGTLVTVSS VL: DIQMTQSPSSLSASVGDRVTITCQASQSISTYLAWYQQKPGQPPKLLIYAASTLEYGVPSRFSGSGSGTDFTLTISSLQPEDFATYYCQSYSDGDSVVFGQGTKVEIKR"
  VALUE_OBSERVED: 8.38
- BINDER: "hT0947AE26-SG181 (antibody, human IgG1, kappa, V domains shown, Human IgG1; Heavy chain = VH + CH, light chain = VL + CL) VH: QVQLVESGGGVVQPGRSLRLSCAASGFHFSNEAMNWIRQPPGKGLEWIGYIYTSGTTYRSNWARGRFTISRDNSKNTLYLQMNSLRAEDTAVYYCARGWHIFGHQYWVMHFWGQGTLVTVSS VL: DIQMTQSPSSLSASVGDRVTITCQASQSISTYEAWYQQKPGQPPKLLIYAASTLESGVPSRFSGSGSGTDFTLTISSLQPEDFATYYCQSYSDGDSVKFGQGTKVEIKR"
  VALUE_OBSERVED: 8.27
- BINDER: "T0947H0053H0156-SG181/T0947L001L0049-SK1 (antibody, human IgG1, kappa, V domains shown, Human IgG1; also called the pH dependent antibody; parent pH-dependent anti human latent TGF-beta 1 antibody) VH: QVQLVESGGGVVQPGRSLRLSCAASGFTFSSEAMNWIRQPPGKGLEWIGYIYTSGTTYRANWARGRFTISRDNSKNTLYLQMNSLRAEDTAVYYCARGTHIYDHYYWVHHLWGQGTLVTVSS VL: DIQMTQSPSSLSASVGDRVTITCQASQSISTYLAWYQQKPGQPPKLLIYAASTLESGVPSRFSGSGSGTDFTLTISSLQPEDFATYYCQSYSDGDSVGFGQGTKVEIKR"
  VALUE_OBSERVED: 7.78
